Value source: ChEMBL document CHEMBL1145514

# assay-summary: Tmax in Enterococcus faecalis infected Wistar rat at 600 mg, po four consecutive administration every 12 hrs
# Type: ADME, organism-based
# test-parameters: in vivo

>  <molecule>
CC(=O)NC[C@H]1CN(c2ccc(N3CCOCC3)c(F)c2)C(=O)O1 [LINEZOLID]

>  <Tmax / h>
1

$$$$

###

# assay-summary: Tmax in Enterococcus faecalis infected Wistar rat at single administration of 600 mg, po
# Assay type: ADME, organism-based
# test-parameters: in vivo

>  <compound-smiles>
CC(=O)NC[C@H]1CN(c2ccc(N3CCOCC3)c(F)c2)C(=O)O1

>  <Tmax, h>
1

$$$$

###

# assay-summary: Tmax in Enterococcus faecalis infected Wistar rat at single administration of 2 to 3 g, po
# Format: ADME, organism-based
# test-parameters: in vivo
property: Tmax (h)

>  <compound-smiles>
CC1(C)S[C@@H]2[C@H](NC(=O)[C@H](N)c3ccc(O)cc3)C(=O)N2[C@H]1C(=O)O

>  <quantitative-result>
2

$$$$
